system: osteoblast-like cells MC3T3-E1; assay: in vitro; format: cell-based
Measured attribute: CC50

query: Field: CC50 (osteoblast-like cells MC3T3-E1). Entry: polyethylene glycol(400) bis(vinyl carbonate) [PEGDVC]
result: > 10 mM

----------
Below: a set of entries, each annotated with reported CC50.
test: in vitro; assay type: cell-based; settings: mouse; MC3T3-E1, 5 days incubation, DNA fluorescence; values are LC50 × 10^4

>>> observed_measurement("C=C(C)C(=O)OCCCCOC(=O)C(=C)C [BDMA, 1,4-butanediol dimethacrylate, reference compound]")
"< 10 µM"
>>> observed_measurement("C=CC(=O)OCC(CC)(COC(=O)C=C)COC(=O)C=C [TTA, trimethylolpropane triacrylate, reference compound]")
"< 10 µM"

query: I have this compound here, C=CC(=O)OCCCCCCOC(=O)C=C [HDDA, 1,6-hexanediol diacrylate, reference compound] , and I need its recorded CC50.
result: < 10 µM

query: I have this compound here, C=COC(=O)N(C)CCN(C)C(=O)OC=C , and I need its recorded CC50.
result: > 10000 µM

query: I have this compound here, C=COC(=O)NOC [MVCA, N-methoxy vinyl carbamate] , and I need its recorded CC50.
result: > 10000 µM

----------
Below: a set of entries, each annotated with reported Cmax1/2.
tested on: human umbilical vein endothelial cells (HUVEC); experiment: Toxicity test of monomers with endothelial cells (EZ4U); assay type: cell-based; conditions: HUVEC, 24 hours, concentration of half-maximum proliferation inhibition

query: I have this compound here, C=COC(=O)CCCCC(=O)OC=C , and I need its recorded Cmax1/2.
result: >1000 µM

query: I have this compound here, C=COC(=O)CCCCCCCCC , and I need its recorded Cmax1/2.
result: >1000 µM

query: I have this compound here, C=COC(=O)[C@H](Cc1ccccc1)NC(C)=O , and I need its recorded Cmax1/2.
result: >1000 µM

query: I have this compound here, C=COC(=O)CCCCC , and I need its recorded Cmax1/2.
result: >1000 µM

query: I have this compound here, C=CC(=O)OCCCCCCOC(=O)C=C [HDDA, 1,6-hexanediol diacrylate, reference compound] , and I need its recorded Cmax1/2.
result: 20 µM

query: I have this compound here, C=COC(=O)CCCCCCC(=O)OC=C , and I need its recorded Cmax1/2.
result: >1000 µM

query: I have this compound here, C=COC(=O)CCCCCCCCC(=O)OC=C , and I need its recorded Cmax1/2.
result: >1000 µM

query: I have this compound here, C=C(C)C(=O)OCCCCOC(=O)C(=C)C [BDMA, 1,4-butanediol dimethacrylate, reference compound] , and I need its recorded Cmax1/2.
result: 40 µM
